Numbers sourced from the supplement of paper PMC9732359.

# assayComment: protein stability index of a GFP-peptide fusion (yeast GPS) (PSI 1-4); higher = more stable; sorted into four equal gates, so the index is relative within each strain
# settings: doa10∆
quantityName: protein stability index
One number for each entry.

The following sequences have reported results that may help.
GNILDFNLNLPPSSFGR [REC8]
3.04
FEGWGHEYIRHLALEIG [RPN1]
2.18
IPVGDNTVVGISGDISD [PRE4]
2.98
LAEEKIRAAGGVVELIA [RPL28]
2.92
HDIIEGINAGEIEIPEN [RPL12A]
2.75

Batch request: protein stability index per item, same order as input.
1. AHMWPRVHDQPLIWQLL [POP3]
2. HDISRYVRAKFLDYTTD [PRP8]
3. KGALMYGPPGTGKTLLA [RPT5]
4. VTTKDDLSGADIQAMCT [RPT2]
5. PSTSITLAERQQLAYDL [RPN9]
6. VRTRGGNKKYRALRIET [RPS8A]
7. GALEEITKDHKVLARQQ [FAS2]

Reply:
1.42
2.23
2.18
3.15
2.91
2.71
2.31

Batch request: protein stability index per item, same order as input.
1. FRISLGLPVGAIMNCAD [RPL23A]
2. IQSKAVEQGYEDAFNFW [YCG1]
3. TVSPTQDKDAIRKQPDD [SIR2]
4. AKAPSGLDQSRIPFSER [FAS1]
5. DQGNGWLYVYETPNQDA [RPN6]
6. FNFFEPIKEAKIKHGSV [YMR129W/POM152]

Reply:
1.95
3.37
2.99
2.19
2.36
2.7

Batch request: protein stability index per item, same order as input.
1. RSLATAVATPKAEVTQL [COR1]
2. DKDSEELDSKTRKILEI [MED4]
3. FKHGPMSLINDAMVTRT [SMD2]
4. EGDASPFTDITVEGISK [RPB2]

Reply:
1. 2.99
2. 2.98
3. 2.9
4. 3.17

----------
# assayComment: protein stability index of a GFP-peptide fusion (yeast GPS) (PSI 1-4); higher = more stable; sorted into four equal gates, so the index is relative within each strain
# settings: doa10∆
quantityName: protein stability index
Give bare numbers.

The following sequences have reported results that may help.
NRERFISKLFLRGDSVI [SMD2]
2.91
NEYPVADAVTKDLKLRR [REC8]
3.08
TFDGIRMSSEEVNSLLL [GRR1]
3.03
EIIFLGAQIVSKQIFTH [ARP9]
1.22
SSKYAYMMNSQSPRGKI [YLR018C/POM34]
2.83
SRLLDILEDYCYFRDFE [ISW2]
1.71
SEYNFLEGSVSLPRFSK [DIS3]
3.1
LALETVLIKMVKMLRDN [SIR3]
2.26

Batch request: protein stability index per item, same order as input.
1. LNEIKEHKIVVLGNSRG [RPN14]
2. VPHSHPSDMVIPDHLAE [SNF12]
3. STRVEFEKLYSDLMKFL [FAS2]
4. EEKGWVPVTKLGRLVKA [RPS2]
5. LSLHENYPQDEINAVFN [POP1]
6. NEDDALIYGISDEERDD [AAR2]

Reply:
3.57
2.04
3.45
3.45
2.97
3.29

----------
# assayComment: protein stability index of a GFP-peptide fusion (yeast GPS) (PSI 1-4); higher = more stable; sorted into four equal gates, so the index is relative within each strain
# settings: ubr1∆
quantityName: protein stability index
Numbers only.

The following sequences have reported results that may help.
MQRHVKVDGKVRTDTTY [RPS4A]
3.06
DTFRAGAFDQLKQNAIR [SRP54]
3.09
RPFDSFGKLLQAYQFLN [ITC1]
1.64
GLHKFVKGDLLQEAIDF [PRE10]
2.99
LGNVDAFQLADGIHYIL [PRP8]
1.91
MTTWRKLYTKELSVTGS [YMR129W/POM152]
1.14

# evaluate next
Task item: Suppose we examine the sequence KDAISFIKEIHKSIELI [YCS4] ; what protein stability index value has been reported?
Reply: 2.69
